- experimentalTarget: ΔF508-CFTR (Homo sapiens, UniProt P13569, DEL508-508)
- Construct: host or cells: CFBE41o-, doxycycline-inducible
- Sequence (P13569 with tags, fused parts or gaps DEL508-508): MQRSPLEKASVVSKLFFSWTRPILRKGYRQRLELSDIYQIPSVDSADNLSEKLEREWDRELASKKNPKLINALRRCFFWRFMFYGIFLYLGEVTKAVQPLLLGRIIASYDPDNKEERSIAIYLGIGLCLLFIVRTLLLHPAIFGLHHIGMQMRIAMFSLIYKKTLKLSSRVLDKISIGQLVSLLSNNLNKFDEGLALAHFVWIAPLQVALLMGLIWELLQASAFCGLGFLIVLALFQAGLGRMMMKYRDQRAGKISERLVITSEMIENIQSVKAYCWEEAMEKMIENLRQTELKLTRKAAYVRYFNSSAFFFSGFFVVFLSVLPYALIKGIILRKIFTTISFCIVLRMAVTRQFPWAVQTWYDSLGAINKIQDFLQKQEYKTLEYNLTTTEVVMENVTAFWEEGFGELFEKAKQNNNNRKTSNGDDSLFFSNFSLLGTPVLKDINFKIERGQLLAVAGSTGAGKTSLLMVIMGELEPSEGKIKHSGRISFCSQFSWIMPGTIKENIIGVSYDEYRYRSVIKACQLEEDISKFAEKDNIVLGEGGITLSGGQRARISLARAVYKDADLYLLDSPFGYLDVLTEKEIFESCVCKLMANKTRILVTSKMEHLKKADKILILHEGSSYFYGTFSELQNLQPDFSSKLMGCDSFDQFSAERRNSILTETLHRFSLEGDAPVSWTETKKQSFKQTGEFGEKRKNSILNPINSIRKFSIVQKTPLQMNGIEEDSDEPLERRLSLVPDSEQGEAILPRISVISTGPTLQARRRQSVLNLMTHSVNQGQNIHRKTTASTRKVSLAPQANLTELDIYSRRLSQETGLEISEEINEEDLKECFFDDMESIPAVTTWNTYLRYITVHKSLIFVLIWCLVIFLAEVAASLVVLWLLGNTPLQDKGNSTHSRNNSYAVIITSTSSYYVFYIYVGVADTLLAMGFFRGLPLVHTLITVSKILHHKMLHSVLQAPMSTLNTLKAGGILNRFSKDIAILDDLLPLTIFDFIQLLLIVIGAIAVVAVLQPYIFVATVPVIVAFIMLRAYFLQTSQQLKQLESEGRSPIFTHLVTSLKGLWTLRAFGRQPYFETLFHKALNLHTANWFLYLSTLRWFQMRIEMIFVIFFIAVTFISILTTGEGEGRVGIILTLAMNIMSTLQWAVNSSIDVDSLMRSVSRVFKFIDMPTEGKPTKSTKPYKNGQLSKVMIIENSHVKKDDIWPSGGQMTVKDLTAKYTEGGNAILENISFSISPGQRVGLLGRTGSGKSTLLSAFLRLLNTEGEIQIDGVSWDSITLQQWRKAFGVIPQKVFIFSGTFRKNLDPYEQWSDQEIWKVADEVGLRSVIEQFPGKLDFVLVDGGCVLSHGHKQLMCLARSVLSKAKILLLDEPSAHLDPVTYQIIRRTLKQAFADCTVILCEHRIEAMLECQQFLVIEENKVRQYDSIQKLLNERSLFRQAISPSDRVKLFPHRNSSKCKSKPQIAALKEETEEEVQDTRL
- methodSummary: CFTR cell surface levels using HRP-tagged ΔF508-CFTR expressing CFBE cells, in the presence of a co-corrector
- Format: cell-based
- settings: HRP-tagged ΔF508-CFTR expressing CFBE cells, in the presence of 3 μM co-corrector; read-out: EC50
pEC50: −log10 of the molar value.
Kind request: treat 6 as inclusive, so pEC50 at 6 or higher is T, anything lower is F.

>  <compound>
N#CC1CCN(c2ccc(-c3cc(C(=O)O)nc4c3c([C@H]3C[C@H](F)C3)nn4-c3ccccc3)cn2)CC1

>  <groupLabel>
T

$$$$
>  <compound>
CC(=O)N1CC(Oc2nn(-c3ccccc3)c3nc(C(=O)O)cc(-c4ccc(N5CCOCC5)cc4)c23)C1

>  <groupLabel>
F

$$$$
>  <compound>
O=C(O)c1cc(N2CCC3(CCNC3=O)C2)c2c(C3CCC3)nn(-c3ccccc3)c2n1 (stereo not drawn)

>  <groupLabel>
F

$$$$
>  <compound>
Cc1cccc(-n2nc(C(C)C)c3c(N4CCC5(CC4)COC5)cc(C(=O)O)nc32)c1

>  <groupLabel>
T

$$$$
>  <compound>
COCC1CCN(c2cc(C(=O)O)nc3c2c(C(C)C)nn3C2CCCCC2)CC1

>  <groupLabel>
T

$$$$
>  <compound>
COC(=O)N1CCC(n2nc(C(C)C)c3c(-c4ccc(N5CCOCC5)cc4)cc(C(=O)O)nc32)C1 (stereo not drawn)

>  <groupLabel>
F

$$$$
>  <compound>
CCN(CC)CCCOc1cc(C(=O)O)nc2c1c(C1CCC1)nn2-c1ccccc1

>  <groupLabel>
F

$$$$
>  <compound>
CC(C)c1nn(-c2cc(N3CCOCC3)ccn2)c2nc(C(=O)O)cc(-c3ccc(N4CCOCC4)cc3)c12

>  <groupLabel>
F

$$$$
>  <compound>
C[C@@H](CN(C)C)Oc1cc(C(=O)O)nc2c1c(C1CCC1)nn2-c1ccccc1

>  <groupLabel>
F

$$$$
